molecular target: full-length human ATR protein (Homo sapiens (Human)); assay: Binding assay ATR (TR-FRET tracer displacement); settings: tracer A, TR-FRET; read-out: ATR binding (tracer A) IC50
Sequence (Q13535 other isoform, or with tags, fused parts or gaps): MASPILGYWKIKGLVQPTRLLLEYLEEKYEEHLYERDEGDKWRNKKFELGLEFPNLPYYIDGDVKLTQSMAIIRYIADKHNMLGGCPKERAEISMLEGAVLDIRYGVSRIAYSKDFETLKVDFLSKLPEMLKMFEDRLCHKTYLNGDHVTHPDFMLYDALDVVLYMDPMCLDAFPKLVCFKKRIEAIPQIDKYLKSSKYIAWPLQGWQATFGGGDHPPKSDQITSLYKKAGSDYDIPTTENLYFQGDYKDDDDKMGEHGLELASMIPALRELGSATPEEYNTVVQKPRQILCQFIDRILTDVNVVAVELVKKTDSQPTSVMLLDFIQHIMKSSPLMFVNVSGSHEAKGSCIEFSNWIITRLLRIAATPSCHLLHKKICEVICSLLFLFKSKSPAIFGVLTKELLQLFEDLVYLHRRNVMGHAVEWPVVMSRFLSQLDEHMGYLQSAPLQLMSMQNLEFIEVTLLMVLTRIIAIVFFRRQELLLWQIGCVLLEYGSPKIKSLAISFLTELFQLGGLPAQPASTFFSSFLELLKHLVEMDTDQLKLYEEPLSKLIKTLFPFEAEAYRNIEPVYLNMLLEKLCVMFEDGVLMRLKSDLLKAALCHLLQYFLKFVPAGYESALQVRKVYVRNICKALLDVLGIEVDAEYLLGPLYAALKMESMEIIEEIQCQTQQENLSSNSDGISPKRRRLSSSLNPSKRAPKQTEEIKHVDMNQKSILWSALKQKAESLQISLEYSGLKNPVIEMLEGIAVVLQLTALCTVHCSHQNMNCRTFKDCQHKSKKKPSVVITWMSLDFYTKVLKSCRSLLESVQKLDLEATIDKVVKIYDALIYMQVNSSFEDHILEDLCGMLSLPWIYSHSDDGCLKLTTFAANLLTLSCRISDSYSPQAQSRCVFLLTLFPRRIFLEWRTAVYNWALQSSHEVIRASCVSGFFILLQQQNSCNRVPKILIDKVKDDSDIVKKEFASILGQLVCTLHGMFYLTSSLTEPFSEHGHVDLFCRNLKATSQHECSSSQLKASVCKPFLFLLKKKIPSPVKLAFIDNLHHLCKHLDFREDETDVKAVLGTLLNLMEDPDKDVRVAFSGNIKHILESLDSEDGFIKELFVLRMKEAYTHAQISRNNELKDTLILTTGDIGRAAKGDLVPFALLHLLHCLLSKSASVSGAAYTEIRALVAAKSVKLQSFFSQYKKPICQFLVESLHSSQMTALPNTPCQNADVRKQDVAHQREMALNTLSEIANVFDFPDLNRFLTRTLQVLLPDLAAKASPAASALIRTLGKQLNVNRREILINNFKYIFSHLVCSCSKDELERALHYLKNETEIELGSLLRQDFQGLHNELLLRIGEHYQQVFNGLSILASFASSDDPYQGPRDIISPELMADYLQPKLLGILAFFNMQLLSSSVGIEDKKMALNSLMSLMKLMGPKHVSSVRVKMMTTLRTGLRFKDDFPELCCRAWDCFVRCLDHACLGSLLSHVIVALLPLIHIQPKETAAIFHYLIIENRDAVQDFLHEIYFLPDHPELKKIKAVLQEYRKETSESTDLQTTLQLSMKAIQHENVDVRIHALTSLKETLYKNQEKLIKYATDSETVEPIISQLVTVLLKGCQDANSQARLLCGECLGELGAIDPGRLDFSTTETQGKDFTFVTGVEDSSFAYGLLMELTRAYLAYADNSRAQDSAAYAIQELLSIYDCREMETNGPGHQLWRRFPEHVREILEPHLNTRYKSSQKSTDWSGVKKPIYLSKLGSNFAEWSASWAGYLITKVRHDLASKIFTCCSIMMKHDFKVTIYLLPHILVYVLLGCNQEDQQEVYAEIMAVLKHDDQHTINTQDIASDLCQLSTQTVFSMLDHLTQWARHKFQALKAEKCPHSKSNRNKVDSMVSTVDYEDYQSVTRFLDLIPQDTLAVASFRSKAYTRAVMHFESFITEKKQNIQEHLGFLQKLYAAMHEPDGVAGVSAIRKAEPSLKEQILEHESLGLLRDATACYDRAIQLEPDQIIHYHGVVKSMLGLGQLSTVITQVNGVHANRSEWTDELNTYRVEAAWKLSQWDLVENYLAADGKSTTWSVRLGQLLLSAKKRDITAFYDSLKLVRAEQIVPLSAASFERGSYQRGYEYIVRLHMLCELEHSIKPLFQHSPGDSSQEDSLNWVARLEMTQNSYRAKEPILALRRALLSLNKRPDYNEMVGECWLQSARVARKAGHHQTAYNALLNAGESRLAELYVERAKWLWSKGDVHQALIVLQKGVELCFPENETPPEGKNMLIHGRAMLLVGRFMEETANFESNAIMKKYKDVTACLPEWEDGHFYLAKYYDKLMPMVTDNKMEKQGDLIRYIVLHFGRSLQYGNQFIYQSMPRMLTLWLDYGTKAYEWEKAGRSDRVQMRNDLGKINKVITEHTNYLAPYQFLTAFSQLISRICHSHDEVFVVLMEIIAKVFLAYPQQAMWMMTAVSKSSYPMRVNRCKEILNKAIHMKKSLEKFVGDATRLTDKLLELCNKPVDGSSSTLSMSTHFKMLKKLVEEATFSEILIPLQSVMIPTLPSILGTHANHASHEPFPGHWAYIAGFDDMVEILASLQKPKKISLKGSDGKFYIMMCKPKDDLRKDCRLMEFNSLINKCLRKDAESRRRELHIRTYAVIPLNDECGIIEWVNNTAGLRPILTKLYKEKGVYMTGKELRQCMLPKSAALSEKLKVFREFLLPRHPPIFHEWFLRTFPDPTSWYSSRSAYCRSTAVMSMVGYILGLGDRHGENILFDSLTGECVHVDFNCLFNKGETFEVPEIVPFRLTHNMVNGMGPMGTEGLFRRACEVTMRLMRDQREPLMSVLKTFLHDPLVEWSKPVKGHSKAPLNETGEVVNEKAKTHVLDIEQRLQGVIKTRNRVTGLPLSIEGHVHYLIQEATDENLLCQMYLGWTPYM
Sequence (Q8WXE1 other isoform, or with tags, fused parts or gaps partner): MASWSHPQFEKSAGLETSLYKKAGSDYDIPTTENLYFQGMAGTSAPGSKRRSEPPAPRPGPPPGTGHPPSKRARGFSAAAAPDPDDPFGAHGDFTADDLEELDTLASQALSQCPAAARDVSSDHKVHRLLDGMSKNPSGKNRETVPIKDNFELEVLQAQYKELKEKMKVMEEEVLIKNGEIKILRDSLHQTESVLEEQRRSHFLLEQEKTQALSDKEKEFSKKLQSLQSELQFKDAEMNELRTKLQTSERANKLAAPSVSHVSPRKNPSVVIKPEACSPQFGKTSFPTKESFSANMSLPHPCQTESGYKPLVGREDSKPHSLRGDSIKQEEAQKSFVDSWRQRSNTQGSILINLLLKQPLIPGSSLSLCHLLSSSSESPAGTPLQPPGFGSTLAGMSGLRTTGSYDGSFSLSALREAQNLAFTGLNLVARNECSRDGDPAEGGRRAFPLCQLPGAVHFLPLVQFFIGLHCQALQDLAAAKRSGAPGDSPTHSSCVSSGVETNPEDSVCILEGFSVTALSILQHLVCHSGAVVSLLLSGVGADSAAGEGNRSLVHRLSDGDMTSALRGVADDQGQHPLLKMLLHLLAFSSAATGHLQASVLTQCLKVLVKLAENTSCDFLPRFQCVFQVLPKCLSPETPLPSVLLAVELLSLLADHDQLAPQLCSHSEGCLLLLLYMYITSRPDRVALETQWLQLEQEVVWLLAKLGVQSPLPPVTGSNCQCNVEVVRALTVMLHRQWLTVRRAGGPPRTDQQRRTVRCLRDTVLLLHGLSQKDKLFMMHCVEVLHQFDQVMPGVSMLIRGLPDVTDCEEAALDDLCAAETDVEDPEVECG
Items are presented alongside their recorded IC50.
Could you give me the number in nM? Just the number is fine.

>>> meas_value("CN(C)C(=O)c1cccc(-c2cc(N3CCOCC3)nc3c(-c4ccn[nH]4)nccc23)c1 [Example 288]")
345

Endpoint output: IC50 of c1cc(-c2nccc3c(N4CCn5ccnc5C4)cc(N4CCOCC4)nc23)[nH]n1 [Example 169] . Value?
115

Endpoint output: IC50 of C[C@@H]1COCCN1c1cc(C2CC2)c2ccnc(-c3cc[nH]n3)c2n1 [Example 29] . Value?
21.5
